Molecular target: UniProtKB P21452
Sequence (P21452 whole entry): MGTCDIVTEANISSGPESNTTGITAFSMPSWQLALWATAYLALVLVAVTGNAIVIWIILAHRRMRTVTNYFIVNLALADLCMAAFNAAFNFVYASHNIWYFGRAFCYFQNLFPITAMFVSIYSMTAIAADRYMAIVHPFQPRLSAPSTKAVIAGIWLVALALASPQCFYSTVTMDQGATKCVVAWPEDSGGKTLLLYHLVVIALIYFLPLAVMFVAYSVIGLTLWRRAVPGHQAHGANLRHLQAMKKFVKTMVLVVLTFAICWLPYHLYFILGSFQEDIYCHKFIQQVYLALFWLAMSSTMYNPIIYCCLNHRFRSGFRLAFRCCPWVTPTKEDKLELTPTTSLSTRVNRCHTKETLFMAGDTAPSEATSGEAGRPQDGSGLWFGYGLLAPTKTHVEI
Here's a roundup of pKi values tested on UniProtKB P21452, taken from various published works.
Field pKi (float): negative decimal logarithm of the concentration in molar.

Recorded pKi for NCCCC(=O)N[C@H]1CC(=O)N[C@@H](Cc2c[nH]c3ccccc23)C(=O)N[C@@H](Cc2ccccc2)C(=O)N[C@H](Cc2ccccc2)CNC1=O , please?
8.10

Recorded pKi for O=C1C[C@@H](C(=O)O)NC(=O)[C@@H](Cc2ccc(Cl)c(Cl)c2)NC(=O)[C@H](Cc2ccccc2)NC(=O)[C@H](Cc2c[nH]c3ccccc23)N1 , please?
6.40

Recorded pKi for CC(C)C(C)NC(=O)c1c(CN2CCN(C(C)C)CC2)c(-c2ccccc2)nc2ccccc12 (centres undefined) , please?
8.04

Recorded pKi for CC(C)=CCc1cc(C(O)C2NC(=O)CNC(=O)[C@H](C(C)C)NC(=O)CNC(=O)[C@@H]3CCCN3C(=O)[C@@H](Cc3c[nH]c4ccccc34)NC(=O)CNC2=O)ccc1O (some centres undefined) , please?
5.42

Recorded pKi for CCCC[C@H](NC(=O)[C@@H]1CCCN1C(=O)[C@H]1CCCN1C(=O)[C@H](Cc1ccccc1)NC(=O)[C@@H](Cc1c[nH]c2ccccc12)NC(=O)[C@H](C)NC(=O)C(CCNc1ccc([N+](=O)[O-])c2nonc12)NC(=O)c1ccccc1)C(N)=O (some centres undefined) , please?
8.87

Recorded pKi for CO/N=C(\COCc1cc(C(F)(F)F)cc(C(F)(F)F)c1)C(CCN1CCN(CC(=O)N2CCCC2)CC1)c1ccc(Cl)c(Cl)c1 (centres undefined) , please?
7.68
